# experimental_target: full-length, proteolytically inactive Taspase 1 (Homo sapiens, UniProt Q9H6P5, D233A/T234A)
# Sequence (Q9H6P5 whole entry D233A/T234A): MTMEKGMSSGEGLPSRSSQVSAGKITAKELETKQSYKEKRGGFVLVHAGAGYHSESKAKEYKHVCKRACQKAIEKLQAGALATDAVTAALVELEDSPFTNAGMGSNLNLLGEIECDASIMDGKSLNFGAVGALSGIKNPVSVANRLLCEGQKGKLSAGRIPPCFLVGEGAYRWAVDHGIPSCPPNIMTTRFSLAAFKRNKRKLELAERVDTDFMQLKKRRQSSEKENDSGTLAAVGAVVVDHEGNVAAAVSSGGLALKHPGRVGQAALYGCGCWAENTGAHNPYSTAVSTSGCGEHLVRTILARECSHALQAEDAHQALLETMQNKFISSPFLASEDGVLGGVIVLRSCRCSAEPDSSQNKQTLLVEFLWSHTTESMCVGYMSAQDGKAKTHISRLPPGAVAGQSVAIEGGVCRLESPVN
# test_details: Surface plasmon resonance on immobilized full-length, inactive Taspase 1
# Assay type: binding
# experimental_setup: isomer E; Table S3; n = 2
Consider the following compounds and their measured kd readings.
readout: kd (s⁻¹)

[
  {
    "smiles_structure": "O=P(O)(O)Oc1c2c(c(OP(=O)(O)OCCn3cc(-c4ccc(N=Nc5ccc(-c6cn(CCOP(=O)(O)Oc7c8c(c(OP(=O)(O)O)c9c7C7CC9c9cc%10c(cc97)C7CC%10c9ccccc97)C7CC8c8cc9c(cc87)C7CC9c8ccccc87)nn6)cc5)cc4)nn3)c3c1C1CC3c3cc4c(cc31)C1CC4c3ccccc31)C1CC2c2cc3c(cc21)C1CC3c2ccccc21",
    "numeric_readout": 0.000548
  },
  {
    "smiles_structure": "Cc1nn(-c2ccc(-c3cn(CCOP(=O)(O)Oc4c5c(c(OP(=O)(O)O)c6c4C4CC6c6cc7c(cc64)C4CC7c6ccccc64)C4CC5c5cc6c(cc54)C4CC6c5ccccc54)nn3)cc2)c(C)c1N=Nc1ccc(-c2ccc(-c3cn(CCOP(=O)(O)Oc4c5c(c(OP(=O)(O)O)c6c4C4CC6c6cc7c(cc64)C4CC7c6ccccc64)C4CC5c5cc6c(cc54)C4CC6c5ccccc54)nn3)cc2)cc1",
    "numeric_readout": 0.00256
  },
  {
    "smiles_structure": "Cc1nn(-c2ccc(C#Cc3ccc(-c4cn(CCOP(=O)(O)Oc5c6c(c(OP(=O)(O)O)c7c5C5CC7c7cc8c(cc75)C5CC8c7ccccc75)C5CC6c6cc7c(cc65)C5CC7c6ccccc65)nn4)cc3)cc2)c(C)c1N=Nc1ccc(C#Cc2ccc(-c3cn(CCOP(=O)(O)Oc4c5c(c(OP(=O)(O)O)c6c4C4CC6c6cc7c(cc64)C4CC7c6ccccc64)C4CC5c5cc6c(cc54)C4CC6c5ccccc54)nn3)cc2)cc1",
    "numeric_readout": 0.00918
  },
  {
    "smiles_structure": "Cc1nn(-c2ccc(-n3cc(CCOP(=O)(O)Oc4c5c(c(OP(=O)(O)O)c6c4C4CC6c6cc7c(cc64)C4CC7c6ccccc64)C4CC5c5cc6c(cc54)C4CC6c5ccccc54)nn3)cc2)c(C)c1N=Nc1ccc(-n2cc(CCOP(=O)(O)Oc3c4c(c(OP(=O)(O)O)c5c3C3CC5c5cc6c(cc53)C3CC6c5ccccc53)C3CC4c4cc5c(cc43)C3CC5c4ccccc43)nn2)cc1",
    "numeric_readout": 0.00322
  }
]

###

# experimental_target: wildtype Taspase 1 (Homo sapiens)
# test_details: Recombinant cleavage assay with GST-MLL2700–2850-GFP-His substrate
# Type: biochemical
# experimental_setup: E isomer; ligand conc. 10 - 100 µM; 200 nM Taspase 1, 5 µM substrate; n = 3; read-out: IC50 TW (recombinant cleavage, full-length protein)
pIC50: −log10 of the molar value.
Consider the following molecules and their measured pIC50 readings.
readout: pIC50

[
  {
    "molecule": "O=P(O)(O)Oc1c2c(c(OP(=O)(O)OCCn3cc(-c4ccc(N=Nc5ccc(-c6cn(CCOP(=O)(O)Oc7c8c(c(OP(=O)(O)O)c9c7C7CC9c9cc%10c(cc97)C7CC%10c9ccccc97)C7CC8c8cc9c(cc87)C7CC9c8ccccc87)nn6)cc5)cc4)nn3)c3c1C1CC3c3cc4c(cc31)C1CC4c3ccccc31)C1CC2c2cc3c(cc21)C1CC3c2ccccc21 [TWAB1]",
    "numeric_readout": 4.65
  },
  {
    "molecule": "Cc1nn(-c2ccc(-n3cc(CCOP(=O)(O)Oc4c5c(c(OP(=O)(O)O)c6c4C4CC6c6cc7c(cc64)C4CC7c6ccccc64)C4CC5c5cc6c(cc54)C4CC6c5ccccc54)nn3)cc2)c(C)c1N=Nc1ccc(-n2cc(CCOP(=O)(O)Oc3c4c(c(OP(=O)(O)O)c5c3C3CC5c5cc6c(cc53)C3CC6c5ccccc53)C3CC4c4cc5c(cc43)C3CC5c4ccccc43)nn2)cc1 [TWAAP0]",
    "numeric_readout": 4.59
  }
]

###

# experimental_target: full-length, proteolytically inactive Taspase 1 (Homo sapiens, UniProt Q9H6P5, D233A/T234A)
# test_details: Surface plasmon resonance on immobilized full-length, inactive Taspase 1
# Format: binding
# experimental_setup: isomer E; Table S3; n = 2
readout: kd (s⁻¹)

[
  {
    "compound": "Cc1nn(Cc2cn(CCOP(=O)(O)Oc3c4c(c(OP(=O)(O)O)c5c3C3CC5c5cc6c(cc53)C3CC6c5ccccc53)C3CC4c4cc5c(cc43)C3CC5c4ccccc43)nn2)c(C)c1N=Nc1ccc(-c2cn(CCOP(=O)(O)Oc3c4c(c(OP(=O)(O)O)c5c3C3CC5c5cc6c(cc53)C3CC6c5ccccc53)C3CC4c4cc5c(cc43)C3CC5c4ccccc43)nn2)cc1 [TWAAP2]",
    "unit_text": "s⁻¹",
    "numeric_readout": 0.00501
  }
]

###

# test_details: Photoisomerization: photostationary states by 1H NMR, switching cycles by UV-vis
# Format: physicochemical
# experimental_setup: green light 520 nm
# Procedure: Tweezer constructs were synthesized as an E/Z mixture, with a strong preference for the thermodynamically stable E isomer. For photoisomerization, UV-vis spectra of TWAAP and TWAB (50 μM in water) were recorded in their initial state. The constructs were then isomerized to the Z isomer with UV light (λ = 365 nm, 1 min) and back to the E isomer with green light (λ = 520 nm, 5 min). […] The UV-vis spectra were recorded with a JASCO V-650 double-beam spectrophotometer (JASCO). […]
readout: PSS Z→E, photostationary state (%)

[
  {
    "smiles_structure": "Cc1nn(-c2ccc(-n3cc(CCOP(=O)(O)Oc4c5c(c(OP(=O)(O)O)c6c4C4CC6c6cc7c(cc64)C4CC7c6ccccc64)C4CC5c5cc6c(cc54)C4CC6c5ccccc54)nn3)cc2)c(C)c1N=Nc1ccc(-n2cc(CCOP(=O)(O)Oc3c4c(c(OP(=O)(O)O)c5c3C3CC5c5cc6c(cc53)C3CC6c5ccccc53)C3CC4c4cc5c(cc43)C3CC5c4ccccc43)nn2)cc1",
    "readout": "PSS Z→E, photostationary state",
    "numeric_readout": 89
  },
  {
    "smiles_structure": "Cc1nn(-c2ccc(C#Cc3ccc(-c4cn(CCOP(=O)(O)Oc5c6c(c(OP(=O)(O)O)c7c5C5CC7c7cc8c(cc75)C5CC8c7ccccc75)C5CC6c6cc7c(cc65)C5CC7c6ccccc65)nn4)cc3)cc2)c(C)c1N=Nc1ccc(C#Cc2ccc(-c3cn(CCOP(=O)(O)Oc4c5c(c(OP(=O)(O)O)c6c4C4CC6c6cc7c(cc64)C4CC7c6ccccc64)C4CC5c5cc6c(cc54)C4CC6c5ccccc54)nn3)cc2)cc1",
    "readout": "PSS Z→E, photostationary state",
    "numeric_readout": 97
  },
  {
    "smiles_structure": "Cc1nn(Cc2cn(CCOP(=O)(O)Oc3c4c(c(OP(=O)(O)O)c5c3C3CC5c5cc6c(cc53)C3CC6c5ccccc53)C3CC4c4cc5c(cc43)C3CC5c4ccccc43)nn2)c(C)c1N=Nc1ccc(-c2cn(CCOP(=O)(O)Oc3c4c(c(OP(=O)(O)O)c5c3C3CC5c5cc6c(cc53)C3CC6c5ccccc53)C3CC4c4cc5c(cc43)C3CC5c4ccccc43)nn2)cc1",
    "readout": "PSS Z→E, photostationary state",
    "numeric_readout": 77
  }
]

###

# experimental_target: wildtype Taspase 1 (Homo sapiens, UniProt Q9H6P5)
# Sequence (Q9H6P5 1-233 limits assumed): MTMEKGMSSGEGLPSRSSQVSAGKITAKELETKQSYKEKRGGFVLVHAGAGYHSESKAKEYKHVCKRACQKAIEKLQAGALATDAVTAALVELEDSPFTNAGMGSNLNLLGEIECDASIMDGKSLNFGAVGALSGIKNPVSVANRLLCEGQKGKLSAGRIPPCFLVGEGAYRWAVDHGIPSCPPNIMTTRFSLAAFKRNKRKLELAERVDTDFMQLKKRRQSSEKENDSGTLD
# Sequence (Q9H6P5 234-420 limits assumed): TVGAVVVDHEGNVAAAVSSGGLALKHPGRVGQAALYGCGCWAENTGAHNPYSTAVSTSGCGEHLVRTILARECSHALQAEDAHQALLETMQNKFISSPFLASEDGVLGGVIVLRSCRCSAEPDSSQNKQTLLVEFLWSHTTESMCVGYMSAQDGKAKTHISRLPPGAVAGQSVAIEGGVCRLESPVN
# test_details: Recombinant cleavage assay with GST-MLL2700–2850-GFP-His substrate
# Format: biochemical
# experimental_setup: E isomer; ligand conc. 10 - 100 µM; 200 nM Taspase 1, 5 µM substrate; n = 3; read-out: IC50 TW (recombinant cleavage, full-length protein)
pIC50: −log10 of the molar value.
readout: pIC50

[
  {
    "molecule": "Cc1nn(Cc2cn(CCOP(=O)(O)Oc3c4c(c(OP(=O)(O)O)c5c3C3CC5c5cc6c(cc53)C3CC6c5ccccc53)C3CC4c4cc5c(cc43)C3CC5c4ccccc43)nn2)c(C)c1N=Nc1ccc(-c2cn(CCOP(=O)(O)Oc3c4c(c(OP(=O)(O)O)c5c3C3CC5c5cc6c(cc53)C3CC6c5ccccc53)C3CC4c4cc5c(cc43)C3CC5c4ccccc43)nn2)cc1 [TWAAP2]",
    "experimental_target": "wildtype Taspase 1 (Homo sapiens, UniProt Q9H6P5)",
    "readout": "pIC50",
    "numeric_readout": 4.76
  }
]

###

# experimental_target: full-length, proteolytically inactive Taspase 1 (Homo sapiens, UniProt Q9H6P5, D233A/T234A)
# test_details: Surface plasmon resonance on immobilized full-length, inactive Taspase 1
# Assay type: binding
# experimental_setup: E isomer; ligand conc. 0.06 - 25 µM; Table S4; read-out: KD TW (SPR, full-length protein)
# Method: SPR measurements were conducted as described.[9,10] First, we utilized an established surface plasmon resonance (SPR) assay to evaluate the overall binding of our ligands to Taspase 1 (Fig. 3).[10,54] […] Fig. 3 Photoswitchable tweezer constructs bind Taspase 1 with SPR binding affinities in the low micromolar range. […] KD values (Table S2) were determined through kinetic evaluation by fitting the individual curves to a 1 : 1 binding model. […]
pKd: −log10 of the molar value.
readout: pKd

[
  {
    "smiles_structure": "O=P(O)(O)Oc1c2c(c(OP(=O)(O)OCCn3cc(-c4ccc(N=Nc5ccc(-c6cn(CCOP(=O)(O)Oc7c8c(c(OP(=O)(O)O)c9c7C7CC9c9cc%10c(cc97)C7CC%10c9ccccc97)C7CC8c8cc9c(cc87)C7CC9c8ccccc87)nn6)cc5)cc4)nn3)c3c1C1CC3c3cc4c(cc31)C1CC4c3ccccc31)C1CC2c2cc3c(cc21)C1CC3c2ccccc21",
    "readout": "pKd",
    "numeric_readout": 5.03
  },
  {
    "smiles_structure": "Cc1nn(Cc2cn(CCOP(=O)(O)Oc3c4c(c(OP(=O)(O)O)c5c3C3CC5c5cc6c(cc53)C3CC6c5ccccc53)C3CC4c4cc5c(cc43)C3CC5c4ccccc43)nn2)c(C)c1N=Nc1ccc(-c2cn(CCOP(=O)(O)Oc3c4c(c(OP(=O)(O)O)c5c3C3CC5c5cc6c(cc53)C3CC6c5ccccc53)C3CC4c4cc5c(cc43)C3CC5c4ccccc43)nn2)cc1",
    "readout": "pKd",
    "numeric_readout": 5.24
  },
  {
    "smiles_structure": "Cc1nn(-c2ccc(-n3cc(CCOP(=O)(O)Oc4c5c(c(OP(=O)(O)O)c6c4C4CC6c6cc7c(cc64)C4CC7c6ccccc64)C4CC5c5cc6c(cc54)C4CC6c5ccccc54)nn3)cc2)c(C)c1N=Nc1ccc(-n2cc(CCOP(=O)(O)Oc3c4c(c(OP(=O)(O)O)c5c3C3CC5c5cc6c(cc53)C3CC6c5ccccc53)C3CC4c4cc5c(cc43)C3CC5c4ccccc43)nn2)cc1",
    "readout": "pKd",
    "numeric_readout": 6.15
  },
  {
    "smiles_structure": "Cc1nn(-c2ccc(-c3cn(CCOP(=O)(O)Oc4c5c(c(OP(=O)(O)O)c6c4C4CC6c6cc7c(cc64)C4CC7c6ccccc64)C4CC5c5cc6c(cc54)C4CC6c5ccccc54)nn3)cc2)c(C)c1N=Nc1ccc(-c2ccc(-c3cn(CCOP(=O)(O)Oc4c5c(c(OP(=O)(O)O)c6c4C4CC6c6cc7c(cc64)C4CC7c6ccccc64)C4CC5c5cc6c(cc54)C4CC6c5ccccc54)nn3)cc2)cc1",
    "readout": "pKd",
    "numeric_readout": 5.39
  }
]

Attribution: paper PMC12419465
